Entry source: patent US20060039867A1

Biological target: α2, non-selective
Assay: Receptor binding, α2 non-selective
Conditions: read-out: Setiptiline (Ki)
experimentalEndpoint: Ki (nM)
Give just the numeric value; nM need not be written.

Problem: Can you share its Ki? I mean this compound: CN1CCC2=C(C1)c1ccccc1Cc1ccccc12
Result: 93

====

Target: NET (Homo sapiens, UniProt P23975)
Sequence (P23975 whole entry): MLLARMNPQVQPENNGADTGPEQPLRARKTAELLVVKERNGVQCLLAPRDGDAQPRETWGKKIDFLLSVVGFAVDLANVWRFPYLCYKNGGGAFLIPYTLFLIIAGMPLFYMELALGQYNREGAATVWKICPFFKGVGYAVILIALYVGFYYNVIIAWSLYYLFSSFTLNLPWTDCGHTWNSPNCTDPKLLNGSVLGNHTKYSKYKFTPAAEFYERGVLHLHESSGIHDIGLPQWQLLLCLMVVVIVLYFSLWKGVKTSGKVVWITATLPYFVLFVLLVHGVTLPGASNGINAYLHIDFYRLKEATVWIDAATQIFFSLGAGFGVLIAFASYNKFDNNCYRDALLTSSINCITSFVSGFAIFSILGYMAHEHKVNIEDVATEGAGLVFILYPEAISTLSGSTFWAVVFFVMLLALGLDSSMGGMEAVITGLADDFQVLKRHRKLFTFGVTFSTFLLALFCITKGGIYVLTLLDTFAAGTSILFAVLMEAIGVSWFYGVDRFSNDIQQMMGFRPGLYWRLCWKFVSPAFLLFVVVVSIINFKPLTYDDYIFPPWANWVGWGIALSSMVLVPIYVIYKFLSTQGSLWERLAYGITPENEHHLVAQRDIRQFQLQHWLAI
experimentalEndpoint: Ki
Provide the measurement as a number trailed by its unit.

Problem: Consider the compound CN1CCC2=C(C1)c1ccccc1Cc1ccccc12 and give its measured Ki.
Result: 1.96 µM

====

Sequence of the target: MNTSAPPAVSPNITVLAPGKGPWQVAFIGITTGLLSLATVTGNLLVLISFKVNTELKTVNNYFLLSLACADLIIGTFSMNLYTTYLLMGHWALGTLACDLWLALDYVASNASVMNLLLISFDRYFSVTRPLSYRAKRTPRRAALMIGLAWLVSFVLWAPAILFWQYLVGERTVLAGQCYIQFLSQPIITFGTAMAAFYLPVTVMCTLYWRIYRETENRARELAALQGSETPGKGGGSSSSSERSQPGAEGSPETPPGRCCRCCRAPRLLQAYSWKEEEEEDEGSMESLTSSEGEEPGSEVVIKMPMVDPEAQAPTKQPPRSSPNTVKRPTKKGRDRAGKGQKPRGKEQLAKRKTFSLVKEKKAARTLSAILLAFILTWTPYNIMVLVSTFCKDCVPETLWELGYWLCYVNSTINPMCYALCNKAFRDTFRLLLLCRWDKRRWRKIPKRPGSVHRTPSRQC
experimentalEndpoint: pKi
Answer as the number alone; pKi is minus log10 of concentration in mol/L.

Problem: # query: pKi of entry CN1CCC2=C(C1)c1ccccc1Cc1ccccc12
Result: 6.59

====

Target: 5HT2, non-selective
Experiment: Receptor binding, 5HT2 non-selective
Settings: 5HT2, non-selective receptor; read-out: Setiptiline (Ki)
experimentalEndpoint: Ki
Answer format reminder: number followed by unit.

Problem: Find Ki (5HT2, non-selective) for the entry CN1CCC2=C(C1)c1ccccc1Cc1ccccc12
Result: 0.71 nM

====

Target: 5HT2C (Homo sapiens)
Sequence (P28335 33-458, species assumed): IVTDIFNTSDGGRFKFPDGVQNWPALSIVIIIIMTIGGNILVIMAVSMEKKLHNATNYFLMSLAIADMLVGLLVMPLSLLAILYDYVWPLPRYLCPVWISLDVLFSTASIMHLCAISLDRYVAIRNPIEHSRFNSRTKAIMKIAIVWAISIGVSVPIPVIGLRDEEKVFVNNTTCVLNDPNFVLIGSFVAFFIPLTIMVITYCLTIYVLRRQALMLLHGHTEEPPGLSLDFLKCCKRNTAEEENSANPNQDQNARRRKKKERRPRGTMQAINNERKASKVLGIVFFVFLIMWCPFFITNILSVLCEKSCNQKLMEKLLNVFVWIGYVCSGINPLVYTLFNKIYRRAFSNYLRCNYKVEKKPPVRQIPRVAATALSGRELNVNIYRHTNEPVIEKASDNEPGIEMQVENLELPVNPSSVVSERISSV
Test: Receptor binding, 5HT2C
Conditions: 5HT2C receptor; read-out: Setiptiline (Ki)
experimentalEndpoint: pKi
# pKi is unitless: minus log10 of the molar concentration; print number only

Problem: What pKi value was documented for this compound, CN1CCC2=C(C1)c1ccccc1Cc1ccccc12 ?
Result: 9.33
